Kindly state pIC50 for each of the entries shown.
Tgt: SHP2 (Homo sapiens (Human))
Sequence (Q06124 whole entry): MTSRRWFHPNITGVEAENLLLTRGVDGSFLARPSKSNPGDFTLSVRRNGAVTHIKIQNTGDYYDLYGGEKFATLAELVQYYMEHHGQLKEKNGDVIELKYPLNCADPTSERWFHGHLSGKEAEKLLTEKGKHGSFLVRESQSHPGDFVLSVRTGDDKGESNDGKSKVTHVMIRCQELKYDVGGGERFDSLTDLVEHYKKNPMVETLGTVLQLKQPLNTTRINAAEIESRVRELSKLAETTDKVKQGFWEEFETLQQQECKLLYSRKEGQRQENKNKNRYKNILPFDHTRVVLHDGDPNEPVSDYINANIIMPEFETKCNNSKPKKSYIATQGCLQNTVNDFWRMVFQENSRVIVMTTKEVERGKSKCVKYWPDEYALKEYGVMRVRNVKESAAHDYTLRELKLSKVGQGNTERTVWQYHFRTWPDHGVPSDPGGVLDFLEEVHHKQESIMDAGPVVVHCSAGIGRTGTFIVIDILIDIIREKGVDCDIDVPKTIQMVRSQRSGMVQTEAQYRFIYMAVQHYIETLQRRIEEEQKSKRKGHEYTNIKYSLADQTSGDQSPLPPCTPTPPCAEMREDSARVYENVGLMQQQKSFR
Experiment summary: SHP2 allosteric inhibition assay (DiFMUP prompt fluorescence)
Format: biochemical
Condition label: 0.25 nM SHP2 activated with 0.5 μM peptide IRS1_pY1172(dPEG8)pY1222; substrate DiFMUP
pIC50: −log10 of the molar value.

# input Please give the measured pIC50 for this molecule: N[C@H]1c2cccc(F)c2CC12CCN(c1cnc3cn[nH]c3n1)CC2 [Example 24]
# output ≥ 7.30

# input Please give the measured pIC50 for this molecule: Cc1nc2c(N3CCCCC3)n[nH]c2nc1N1CCC2(CC1)Oc1ccccc1[C@H]2N [Example 162]
# output < 5.00

# input Please give the measured pIC50 for this molecule: Cc1nc(N2CCC3(CC2)Oc2ccccc2[C@H]3N)c(CO)nc1-c1cccc(Cl)c1Cl [Example 268]
# output ≥ 7.30

# input Please give the measured pIC50 for this molecule: Cn1cc(-c2ccc3c(n2)CCCN3c2n[nH]c3nc(N4CCC5(CC4)Cc4ccc(F)cc4[C@H]5N)cnc23)cn1 [Example 40]
# output < 5.00

# input Please give the measured pIC50 for this molecule: N#Cc1ccc2c(c1)N([C@H]1C[C@@H](O)C1)CCN2c1n[nH]c2nc(N3CCC4(CC3)Cc3ccccc3C4N)cnc12 (stereo partly shown) [Example 34]
# output ≥ 7.30

# input Please give the measured pIC50 for this molecule: COc1ccc2c(n1)[C@@H](N)C1(CCN(c3cnc4c(N5CCCc6ncccc65)n[nH]c4n3)CC1)C2 [Example 106]
# output ≥ 7.30

# input Please give the measured pIC50 for this molecule: N[C@@H]1c2ccccc2CC12CCN(c1ncc(SCC3CC3)c(=O)[nH]1)CC2 [Example 237]
# output ≥ 7.30

# input Please give the measured pIC50 for this molecule: Cc1nc2c(N3CCCc4c3ccn(C)c4=O)n[nH]c2nc1N1CCC2(CC1)Cc1ccccc1[C@H]2N [Example 247]
# output 5.00 to 6.00

# input Please give the measured pIC50 for this molecule: Cc1n[nH]c2nc(N3CCC4(CC3)Cc3ccccc3[C@H]4N)c(CO)nc12 [Example 156]
# output ≥ 7.30

# input Please give the measured pIC50 for this molecule: Cc1cc(N2CCC3(CC2)Cc2ccccc2[C@H]3N)cnc1Sc1ccnc(N)c1Cl [Example 219]
# output ≥ 7.30

# input Please give the measured pIC50 for this molecule: Cc1nc2c(C#N)n[nH]c2nc1N1CCC2(CC1)Cc1ccccc1[C@H]2N [Example 163]
# output 5.00 to 6.00

# input Please give the measured pIC50 for this molecule: Cc1nc2c(N3CCCc4c3ccn(C)c4=O)n[nH]c2nc1N1CCC2(CC1)Cc1ccc(F)cc1[C@H]2N [Example 246]
# output < 5.00

# input Please give the measured pIC50 for this molecule: N[C@@H]1c2ccccc2CC12CCN(c1cnc3c(-c4cccc5ncccc45)n[nH]c3n1)CC2 [Example 68]
# output ≥ 7.30

# input Please give the measured pIC50 for this molecule: N[C@H]1c2ccccc2C[C@]12CC[C@@H](c1cnc(SCC3CC3)cn1)CC2 [Example 285]
# output ≥ 7.30

# input Please give the measured pIC50 for this molecule: Cc1nc(SC2CCCC2)cnc1N1CCC2(CC1)Cc1ccccc1[C@H]2N [Example 249]
# output ≥ 7.30

# input Please give the measured pIC50 for this molecule: N[C@@H]1c2ccccc2CC12CCN(c1cnc(N3CCC[C@H]3c3ccccc3)cn1)CC2 (racemic) [Example 165]
# output < 5.00

# input Please give the measured pIC50 for this molecule: N[C@@H]1c2ccccc2OC12CCN(c1cnc(Sc3cccnc3Cl)cn1)CC2 [Example 96]
# output ≥ 7.30

# input Please give the measured pIC50 for this molecule: N[C@H]1c2ccccc2CC12CCN(c1cnc3c(-c4ccncc4F)n[nH]c3n1)CC2 [Example 75]
# output ≥ 7.30

# input Please give the measured pIC50 for this molecule: Nc1nccc(-c2n[nH]c3nc(N4CCC5(CC4)Cc4ccccc4[C@H]5N)cnc23)c1Cl [Example 79]
# output ≥ 7.30

# input Please give the measured pIC50 for this molecule: CN1CCN(c2n[nH]c3nc(N4CCC5(CC4)Cc4ccccc4[C@H]5N)cnc23)c2ccc(C#N)cc21 [Example 43]
# output ≥ 7.30

# input Please give the measured pIC50 for this molecule: Cn1cnc2ccnc(N3CCC4(CC3)Cc3ccccc3[C@H]4N)c21 [Example 183]
# output < 5.00

# input Please give the measured pIC50 for this molecule: N[C@@H]1c2ccccc2CC12CCN(c1cnc(OCC3CC3)cn1)CC2 [Example 171]
# output ≥ 7.30

# input Please give the measured pIC50 for this molecule: N[C@@H]1c2ccccc2OC12CCN(c1cnc(Oc3ccnc(Cl)c3Cl)cn1)CC2 [Example 64]
# output ≥ 7.30

# input Please give the measured pIC50 for this molecule: N[C@@H]1c2ccccc2CC12CCN(c1cnc3c(-c4ccnc(Cl)c4Cl)n[nH]c3n1)CC2 [Example 70]
# output 6.00 to 7.30

# input Please give the measured pIC50 for this molecule: N#Cc1ccc2c(c1)N(C1(C#N)CC1)CCN2c1n[nH]c2nc(N3CCC4(CC3)Cc3ccccc3[C@H]4N)cnc12 [Example 39]
# output ≥ 7.30

# input Please give the measured pIC50 for this molecule: CNC(=O)c1n[nH]c2nc(N3CCC4(CC3)Cc3ccccc3[C@H]4N)c(CO)nc12 [Example 155]
# output ≥ 7.30

# input Please give the measured pIC50 for this molecule: CC(=O)N1CCN(c2n[nH]c3nc(N4CCC5(CC4)Cc4ccccc4[C@@H]5N)cnc23)c2ccccc21 [Example 1]
# output ≥ 7.30

# input Please give the measured pIC50 for this molecule: N[C@@H]1c2ccccc2OC12CCN(c1cnc3c(N4CCCc5nc(-c6ncco6)ccc54)n[nH]c3n1)CC2 [Example 61]
# output ≥ 7.30

# input Please give the measured pIC50 for this molecule: Nc1nccc(Sc2ccc(N3CCC4(CC3)Cc3ccc(F)cc3[C@H]4N)cn2)c1Cl [Example 218]
# output ≥ 7.30

# input Please give the measured pIC50 for this molecule: N[C@@H]1c2ccccc2CC12CCN(c1cnc(S[C@@H]3CCOC3)cn1)CC2 [Example 235]
# output < 5.00

# input Please give the measured pIC50 for this molecule: C[C@@H](O)c1nc2c(N3CCCc4ncccc43)n[nH]c2nc1N1CCC2(CC1)Cc1ccccc1[C@H]2N (single isomer, unassigned) [Example 141]
# output ≥ 7.30
